Taken from the supplement of paper PMC7877785.

Experiment: self-splicing fitness, log relative to wild type (ln ratio); higher = more splicing; Tetrahymena group I intron in knt gene, E. coli kanamycin selection, DiMSum; sequences stand for … in CUCUCU…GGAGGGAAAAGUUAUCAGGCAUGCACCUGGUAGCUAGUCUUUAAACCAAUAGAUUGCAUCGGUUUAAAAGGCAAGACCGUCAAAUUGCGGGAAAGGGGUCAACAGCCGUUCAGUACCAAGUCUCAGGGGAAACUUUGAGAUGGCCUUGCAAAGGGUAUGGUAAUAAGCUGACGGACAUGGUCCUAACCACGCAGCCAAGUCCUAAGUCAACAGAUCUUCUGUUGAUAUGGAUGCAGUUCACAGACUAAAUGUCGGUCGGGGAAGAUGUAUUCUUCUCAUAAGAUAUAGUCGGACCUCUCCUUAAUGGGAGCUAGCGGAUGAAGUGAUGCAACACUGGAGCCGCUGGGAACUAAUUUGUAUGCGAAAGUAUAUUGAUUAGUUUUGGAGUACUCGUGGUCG;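 further: selection with 25 µg/mL kanamycin versus none on LB agar overnight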
Details: 30 °C
measured.attribute: self-splicing fitness (ln)

INSERT INTO assay_data (sequence_string, measured_attribute, number) VALUES
  ('AUGCAGCAAUAUUACGAGAU', 'self-splicing fitness (ln)', -3),
  ('CCCUAGCAAUAUUACGCCUG', 'self-splicing fitness (ln)', -3.64),
  ('CACCAGCAAUAUUACGGGUC', 'self-splicing fitness (ln)', -2.54),
  ('ACACAGCAAUAUUACGUCCA', 'self-splicing fitness (ln)', -1.09),
  ('UACAAGCAAUAUUACGCCCG', 'self-splicing fitness (ln)', 0.87);
